Item-by-item account of Plant response rating, Sedge, Umbrella
test system: sedge, umbrella; assay: Test C flooded paddy test; assay type: in vivo, Cyperus difformis; settings: Flood, 125 g ai/ha; scale of 0 to 100 where 0 is no effect and 100 is complete control; 13 to 15 days
Quick one: just the number, no unit, thanks!

[Q] Endpoint output: Plant response rating, Sedge, Umbrella of O=C1NCC(c2ccsc2)C1C(=O)Nc1ccccc1F (racemic) . Value?
[A] 0

[Q] What does the data say about its Plant response rating, Sedge, Umbrella? Entry: CN1CC(c2ccc(F)c(F)c2)C(C(=O)Nc2cccc(F)c2F)C1=O (centres unmarked)
[A] 0

[Q] What Plant response rating, Sedge, Umbrella value was documented for this compound, O=C1NCC(c2ccc(C(F)(F)F)cc2)C1C(=O)Nc1cccc(F)c1F (centres unmarked) ?
[A] 55

[Q] What does the data say about its Plant response rating, Sedge, Umbrella? Entry: O=C1NCC(c2cccc(C(F)F)c2)C1C(=O)Nc1ccccc1C(F)(F)F (racemic)
[A] 0

[Q] Which Plant response rating, Sedge, Umbrella is reported for this compound? O=C1NCC(c2ccc(F)c(F)c2)C1C(=O)Nc1ccc(F)c(F)c1F (centres unmarked)
[A] 0

[Q] Can you share its Plant response rating, Sedge, Umbrella? I mean this compound: Cc1ccccc1NC(=O)C1C(=O)NCC1c1ccc(F)c(F)c1 (racemic)
[A] 0

[Q] Requested read-out: Plant response rating, Sedge, Umbrella. Entry: O=C1NCC(c2cccc(Cl)c2)C1C(=O)Nc1ccccc1F (racemic)
[A] 0

[Q] Return reported Plant response rating, Sedge, Umbrella; argument: O=C1NCC(c2ccc(Cl)c(F)c2)C1C(=O)Nc1cccc(F)c1F (centres unmarked)
[A] 50

====

tested on: ducksalad; assay: Test B flooded paddy test; type: in vivo, Heteranthera limosa; details: 500 g ai/ha, Flood; scale of 0 to 100 where 0 is no effect and 100 is complete control
Decision: Plant response rating, Ducksalad beneath 60 gives True; Plant response rating, Ducksalad meeting or exceeding 60 gives False.

# Compound, Class Label
rows = [
    ("CCN1CC(c2ccc(C(F)(F)F)cc2)C(C(=O)Nc2ccccc2F)C1=O (stereo not drawn)", "False"),
]

[Q] In plain terms, does O=C1NCC(c2ccc(SC(F)(F)F)cc2)C1C(=O)Nc1ccc(F)c(F)c1F (stereo not drawn) come in under 60 for Plant response rating, Ducksalad?
[A] False

[Q] State whether 60 exceeds Plant response rating, Ducksalad recorded for O=C1NCC(c2ccc(Br)c(Br)c2)C1C(=O)Nc1ccccc1F (stereo not drawn) .
[A] False

[Q] Lab note: Plant response rating, Ducksalad threshold 60. Does this compound come in strictly under it? O=C1NCC(c2ccc(Br)c(Br)c2)C1C(=O)Nc1ccc(F)cc1F (stereo not drawn)
[A] True

[Q] Does this compound meet the criterion Plant response rating, Ducksalad < 60? O=C1NCC(c2ccc(Br)c(Br)c2)C1C(=O)Nc1ccc(F)c(F)c1F (stereo not drawn)
[A] True

[Q] Does the reported Plant response rating, Ducksalad of the following compound sit strictly below 60? Cc1cc(C2CNC(=O)C2C(=O)Nc2ccccc2F)ccc1F (racemic)
[A] False

[Q] Does this compound meet the criterion Plant response rating, Ducksalad < 60? O=C1NCC(c2ccc(Cl)s2)C1C(=O)Nc1ccccc1F (stereo not drawn)
[A] False

[Q] Strictly below 60: is that where Plant response rating, Ducksalad of Cc1cc(C2CNC(=O)C2C(=O)Nc2ccc(F)c(F)c2F)ccc1F (racemic) sits?
[A] False

[Q] Plant response rating, Ducksalad strictly < 60 for this compound? O=C1NCC(c2ccc(C(F)(F)F)cc2)C1C(=O)Nc1ccccc1F (stereo not drawn)
[A] True
